- Tested on: NCI-H226
- experiment.summary: NCI tumour cell line growth inhibition, 48 h
Activity calls are given as the source filed them. Cut-off read from the data, not from the text of the source: active = GI50 up to about 1.1 µM and inactive = higher.
# GI50 annotations

[[record]]
molecule = "O=C1N/C(=N/N=C\\c2ccccc2)N/C1=C/c1ccc(Cl)cc1"
target_desc = "NCI-H226"
measured = "15.5 µM (inactive)"

[[record]]
molecule = "C=CCN(c1cc(OC)c2[nH]c(C(=O)O)c(C)c2c1[N+](=O)[O-])S(C)(=O)=O"
target_desc = "NCI-H226"
measured = "> 100 µM (inactive)"

[[record]]
molecule = "O=C1c2ccccc2C(=O)c2c1ccc1c2N=C(c2ccc(Br)cc2)CC(c2cccc3ccccc23)N1 (stereo not given)"
target_desc = "NCI-H226"
measured = "> 100 µM (inactive)"

[[record]]
molecule = "CN(CCC#N)c1ccc(/C=C2\\SC(=S)NC2=O)cc1"
target_desc = "NCI-H226"
measured = "> 100 µM (inactive)"

[[record]]
molecule = "O=C1CSC(c2ccc(Cl)cc2)N1c1ccc(Oc2ccc(Cl)cc2)c(Cl)c1 (stereo not given)"
target_desc = "NCI-H226"
measured = "17.4 µM (inactive)"

[[record]]
molecule = "Oc1c(C(Nc2ccccn2)c2ccccc2)ccc2cccnc12 (stereo not given)"
target_desc = "NCI-H226"
measured = "2.59 µM (inactive)"


Ask | Which GI50 is listed for COC(=O)C1=C(O)c2cc(OC)c(OC)c(OC)c2[C@H](c2cc(OC)c(OC)c(OC)c2)C1C(=O)OC (stereo not given in full) ?
Reply | 49.3 µM (inactive)

Ask | Form field: reported GI50 of CN1CCN(CC(=O)Nc2cccc3ccccc23)CC1
Reply | > 100 µM (inactive)

Ask | Record request: GI50 value, item O=[N+]([O-])c1nccn1CC(O)CN1CCCCC1 (stereo not given) [PIMONIDAZOLE]
Reply | > 100 µM (inactive)

Ask | For the molecule Cc1cc2c(cc1Cl)S(=O)(=O)OC(c1ccc([N+](=O)[O-])cc1)=N2 , what GI50 is on record?
Reply | > 100 µM (inactive)

Ask | # input molecule: COC(=O)C(Cc1c[nH]c2ccccc12)NP(=O)(O)OCC1OC(n2cc(Br)c(=O)[nH]c2=O)CC1O (stereo not given) ; wanted: its GI50
Reply | > 100 µM (inactive)

Ask | I'd like to know its GI50. The molecule in question is O=C(C(=O)n1ccc2ccccc21)c1c[nH]c2ccccc12
Reply | > 10 µM (inactive)

Ask | Which GI50 is listed for CN1CCOC(c2ccc(Cl)cc2)O1 (stereo not given) ?
Reply | > 100 µM (inactive)

Ask | GET /values?readout=GI50&item= COc1cc2cc3c4c(cc(OC)c(OC)c4c2cc1OC)CCN3C
Reply | 7.35 µM (inactive)

Ask | Fill blank: measured GI50 of the molecule COc1nc2ccc(COc3ccc(C(=O)NC(CCC(=O)O)C(=O)O)cc3)cc2nc1OC (stereo not given) is ____.
Reply | > 10 µM (inactive)

Ask | GI50 lookup needed for C/C(=C\CO)CC[C@@H]1[C@@]2(C)CCCC(C)(C)[C@@H]2CC[C@@]1(C)O , thanks.
Reply | 18.5 µM (inactive)

Ask | Fill in the blank: the reported GI50 of NC1=Nc2cc(Cl)ccc2Sc2nc3ccccc3n21 is ____.
Reply | 2.86 µM (inactive)
